System: LXRb:RXRa (NR concentration 270 nM, RXRa partner concentration 90 nM)
Assay: PBM binding z-score (relative to random genomic background probes); higher = stronger binding; sequences stand for … in GC…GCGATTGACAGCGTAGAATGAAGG
Value kind: PBM binding z-score
Answer as a number with no unit attached.

# example entries with known answers
CGAACTAAGTCAGAACAGGACAGTGAAGGATGAT	-0.842
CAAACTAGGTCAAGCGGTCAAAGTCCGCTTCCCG	2.97
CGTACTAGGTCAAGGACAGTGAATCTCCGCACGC	1.61

Continue with the next sequence.
Record "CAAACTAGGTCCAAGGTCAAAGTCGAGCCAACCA" . Reported PBM binding z-score: 3.75
